Task for the reader: assign each of the following binders its reported FITC- (%).
- measured on: T1, HER2 on the surface of HER2+ cancer cells (BT474, SKOV-3) (human, UniProt P04626 23-1255)
- T1 construct: whole, on cells; also called human epidermal growth factor receptor 2
- assay notes: flow cytometry on BT-474 cells (HER2+), 100 nM binding sites
One number for each entry, in %.

These solved cases illustrate the format of a correct answer.
A1 anti-HER2 VHH (VHH, Llama VHH expressed in WK6 E. coli with C-terminal c-myc and His tags; also called A1 clone) VHH: QVQLQESGGGLVQPGGSLRLSCAASGHTLSTYVVAWFRQAPGKERESVAAIGWSSRSPYYPDSVKGRFTISEDNTKNTVYLQMNSLKPDDTAVYYCAADSYPRRWDRESDFGSWGQGTQVTVSS: 1.23
F2 anti-HER2 VHH (VHH) VHH: QVQLQESGGGLVQAGGSLKLSCAASGRTLSAYVVGWFRQAPGRERESVAAIGWSTHSVYYADSVKGRFTISRDNTENTVYLQMNSLKPDDTAVYYCAADSSPRRWDRESDFGSWGQGTQVTVSS: 1.42
E9 anti-HER2 VHH (VHH) VHH: QVQLQESGGGSVQAGGSLKLSCAASGRTLSAYVVGWFRQAPGRERESVAAIGWSTHSVYYADSVKGRFTISRDNTENTVYLQMNSLKPDDTAVYYCAADSSPRRWDRESDFGSWGQGTQVTVSS: 1.85

Item H7 anti-HER2 VHH (VHH) VHH: QVQLQESGGGLVQAGGSLRLSCAASGHTLSTYVVAWFRQAPGKERESVAAIGWSTRSPYYADSVKGRFTISEDNTKNTVYLQMNSLKPDDTAVYYCAADSYPRRWDRESDFGSWGQGTQVTVSS has what recorded FITC- (%)?
1.72
